- study_system: 5-HT1AR (Homo sapiens, UniProt P08908)
- Sequence (P08908 whole entry): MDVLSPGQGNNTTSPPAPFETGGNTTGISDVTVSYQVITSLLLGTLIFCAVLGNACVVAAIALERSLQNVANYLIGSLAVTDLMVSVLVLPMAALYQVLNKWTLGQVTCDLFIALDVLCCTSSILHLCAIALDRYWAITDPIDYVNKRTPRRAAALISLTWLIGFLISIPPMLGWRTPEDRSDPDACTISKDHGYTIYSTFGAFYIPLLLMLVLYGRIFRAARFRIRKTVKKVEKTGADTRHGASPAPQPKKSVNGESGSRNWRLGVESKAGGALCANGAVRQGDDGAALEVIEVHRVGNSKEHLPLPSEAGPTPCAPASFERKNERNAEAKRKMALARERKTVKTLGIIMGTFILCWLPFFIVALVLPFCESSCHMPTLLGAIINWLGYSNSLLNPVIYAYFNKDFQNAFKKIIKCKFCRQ
- assay_protocol: 5-HT1AR competition binding with [3H]8-OH-DPAT
property_label: 5-HT1AR binding affinity (in words)

INSERT INTO assay_data (mol_smiles, study_system, value_reported) VALUES
  ('CSc1ccccc1N1CCN(CCCCn2ncc(=O)n(C)c2=O)CC1', '5-HT1AR (Homo sapiens, UniProt P08908)', 'nanomolar affinity'),
  ('Cn1c(=O)cnn(CCCCN2CCN(c3ccccc3OCCCF)CC2)c1=O', '5-HT1AR (Homo sapiens, UniProt P08908)', 'nanomolar affinity'),
  ('Cn1c(=O)cnn(CCCCN2CCN(c3ccccc3S)CC2)c1=O', '5-HT1AR (Homo sapiens, UniProt P08908)', 'nanomolar affinity');

* * *

- study_system: 5-HT1AR (Homo sapiens)
- assay_protocol: 5-HT1AR competition binding with [3H]8-OH-DPAT
property_label: 5-HT1AR binding affinity (in words)

Consider the reported 5-HT1AR binding affinity (in words) for these compounds:
INSERT INTO results (mol_smiles, property_label, value_reported) VALUES
  ('COc1ccccc1N1CCN(CCCCn2ncc(=O)n(C)c2=O)CC1', '5-HT1AR binding affinity (in words)', 'nanomolar affinity'),
  ('Cn1c(=O)cnn(CCCCN2CCN(c3ccccc3O)CC2)c1=O', '5-HT1AR binding affinity (in words)', 'nanomolar affinity'),
  ('CCOc1ccccc1N1CCN(CCCCn2ncc(=O)n(C)c2=O)CC1', '5-HT1AR binding affinity (in words)', 'nanomolar affinity'),
  ('Cn1c(=O)cnn(CCCCN2CCN(c3ccccn3)CC2)c1=O', '5-HT1AR binding affinity (in words)', 'high affinity'),
  ('Cn1c(=O)cnn(CCCCN2CCN(c3ccccc3C#N)CC2)c1=O', '5-HT1AR binding affinity (in words)', 'nanomolar affinity'),
  ('Cn1c(=O)cnn(CCCCN2CCN(c3cccc(Br)n3)CC2)c1=O', '5-HT1AR binding affinity (in words)', 'high affinity');

Lab note: next compound to report on.
IN: Item `Cn1c(=O)cnn(CCCCN2CCN(c3ncccc3F)CC2)c1=O` with 5-HT1AR (Homo sapiens) - 5-HT1AR binding affinity (in words)?
OUT: high affinity
